Answer each item with its documented P e.
- assay: PAMPA with synthetic phospholipid membrane, lauryl chain (C12)
- Type: in vitro ADME
- test_conditions: C12, donor pH 4.98, acceptor pH 7.4, 16 h

compound | measure_name | measured
O=C(N[C@H](CO)[C@H](O)c1ccc([N+](=O)[O-])cc1)C(Cl)Cl [Chloroamphenicol] | P e | 4.2 ×10^–6 cm/s
CN/C(=N/CCSCc1nc[nH]c1C)NC#N [Cimetidine] | P e | 1.9 ×10^–6 cm/s
CNC(=C[N+](=O)[O-])NCCSCc1ccc(CN(C)C)o1 [Ranitidine] | P e | 1.8 ×10^–7 cm/s

# context switch: different compound, same P e
Memo: CC(C)Cc1ccc(C(C)C(=O)O)cc1 (stereo not shown) [Ibuprofen] , reported P e: 23.0 ×10^–6 cm/s

###

- assay: PAMPA with synthetic phospholipid membrane, decyl chain (C10)
- Assay type: in vitro ADME
- test_conditions: C10, donor pH 4.6, acceptor pH 7.4, 16 h
Structures can show the parent of a compound that is named as a salt.
Answer each item with its documented P e.

Observe how each entry below is paired with its result.
molecule | P e
COCCc1ccc(OCC(O)CNC(C)C)cc1 (stereo not shown) [Metoprolol Tartrate] | 1.4 ×10^–5 cm/s
CN/C(=N/CCSCc1nc[nH]c1C)NC#N | 1.8 ×10^–6 cm/s
CN(C)C(=N)N=C(N)N [Metformin Hydrochloride] | 1.5 ×10^–7 cm/s
CC(C)Cc1ccc(C(C)C(=O)O)cc1 (stereo not shown) | 23.0 ×10^–6 cm/s
CC1(C)S[C@@H]2[C@H](NC(=O)[C@H](N)c3ccc(O)cc3)C(=O)N2[C@H]1C(=O)O | 1.9 ×10^–7 cm/s

Batch: P e for all items listed.
1. CCn1cc(C(=O)O)c(=O)c2cc(F)c(N3CCNCC3)cc21
2. CNC(=C[N+](=O)[O-])NCCSCc1ccc(CN(C)C)o1

stdout:
["1.9 ×10^–6 cm/s", "1.6 ×10^–7 cm/s"]

###

- assay: PAMPA with synthetic phospholipid membrane, decyl chain (C10)
- Assay type: in vitro ADME
- test_conditions: PAMPA, C10, donor pH 4.98, acceptor pH 7.4, 16 h; read-out: P e
Answer each item with its documented Papp at 16 h.
Numbers only, in ×10⁻⁶ cm/s.

Observe how each entry below is paired with its result.
compound | measure_name | measured
O=C(N[C@H](CO)[C@H](O)c1ccc([N+](=O)[O-])cc1)C(Cl)Cl | Papp at 16 h | 4
CN/C(=N/CCSCc1nc[nH]c1C)NC#N | Papp at 16 h | 1.9
CC(C)Cc1ccc(C(C)C(=O)O)cc1 (stereo not shown) | Papp at 16 h | 22

# context switch: different compound, same Papp at 16 h
Memo: CCn1cc(C(=O)O)c(=O)c2cc(F)c(N3CCNCC3)cc21 , reported Papp at 16 h: 2.2

###

- assay: PAMPA with synthetic phospholipid membrane, octyl chain (C8)
- Format: in vitro ADME
- test_conditions: PAMPA, pH 7.4, C8 membrane, incubation time 16 h, pH 7.4 donor and acceptor, 25°C; read-out: P e
Structures can show the parent of a compound that is named as a salt.
measure_name: Papp at 16 h (×10⁻⁶ cm/s)
Give bare numbers, in ×10⁻⁶ cm/s.

molecule | unit_symbol | Papp at 16 h
NC(N)=Nc1nc(CSCCC(N)=NS(N)(=O)=O)cs1 [Famotidine] | ×10⁻⁶ cm/s | 2.7
O=C(N[C@H](CO)[C@H](O)c1ccc([N+](=O)[O-])cc1)C(Cl)Cl [Chloroamphenicol] | ×10⁻⁶ cm/s | 8.8
CN(C)C(=N)N=C(N)N [Metformin Hydrochloride] | ×10⁻⁶ cm/s | 2.4

Memo: CN/C(=N/CCSCc1nc[nH]c1C)NC#N [Cimetidine] , reported Papp at 16 h: 2.6

###

- assay: PAMPA with synthetic phospholipid membrane, octyl chain (C8)
- Format: in vitro ADME
- test_conditions: PAMPA, C8, donor pH 4.98, acceptor pH 7.4, 16 h; read-out: P e
measure_name: Papp at 16 h (×10⁻⁶ cm/s)
Numbers only, in ×10⁻⁶ cm/s.

Observe how each entry below is paired with its result.
compound | unit_symbol | measured
CC(C)Cc1ccc(C(C)C(=O)O)cc1 (stereo not shown) [Ibuprofen] | ×10⁻⁶ cm/s | 23.5
CCn1cc(C(=O)O)c(=O)c2cc(F)c(N3CCNCC3)cc21 [Norfloxacin] | ×10⁻⁶ cm/s | 2.3
NC(N)=Nc1nc(CSCCC(N)=NS(N)(=O)=O)cs1 [Famotidine] | ×10⁻⁶ cm/s | 2.2

# context switch: different compound, same Papp at 16 h
Memo: CN/C(=N/CCSCc1nc[nH]c1C)NC#N [Cimetidine] , reported Papp at 16 h: 1.6

###

- assay: PAMPA with synthetic phospholipid membrane, lauryl chain (C12)
- Format: in vitro ADME
- test_conditions: PAMPA, C12, donor pH 9.32, acceptor pH 7.4, 16 h; read-out: P e
measure_name: Papp at 16 h (×10⁻⁶ cm/s)
Answers are plain numbers, in ×10⁻⁶ cm/s.

Memo: NC(N)=Nc1nc(CSCCC(N)=NS(N)(=O)=O)cs1 , reported Papp at 16 h: 6.1

###

Answer each item with its documented P e.
- assay: PAMPA with synthetic phospholipid membrane, octyl chain (C8)
- Format: in vitro ADME
- test_conditions: C8, donor pH 4.98, acceptor pH 7.4, 16 h
Counter-ions that a name gives are not always drawn.

Observe how each entry below is paired with its result.
compound | P e
CC1(C)S[C@@H]2[C@H](NC(=O)[C@H](N)c3ccc(O)cc3)C(=O)N2[C@H]1C(=O)O [Amoxicillin] | 2.1 ×10^–7 cm/s
CN(C)C(=N)N=C(N)N [Metformin Hydrochloride] | 1.6 ×10^–7 cm/s
CNC(=C[N+](=O)[O-])NCCSCc1ccc(CN(C)C)o1 [Ranitidine] | 1.8 ×10^–7 cm/s
COCCc1ccc(OCC(O)CNC(C)C)cc1 (centres unmarked) [Metoprolol Tartrate] | 2.7 ×10^–5 cm/s

Memo: O=C(N[C@H](CO)[C@H](O)c1ccc([N+](=O)[O-])cc1)C(Cl)Cl [Chloroamphenicol] , reported P e: 4.2 ×10^–6 cm/s

###

- assay: PAMPA with synthetic phospholipid membrane, octyl chain (C8)
- Assay type: in vitro ADME
- test_conditions: PAMPA, C8, donor pH 8.2, acceptor pH 7.4, 16 h; read-out: P e
measure_name: Papp at 16 h (×10⁻⁶ cm/s)
Answers are plain numbers, in ×10⁻⁶ cm/s.

compound | measure_name | measured
O=C(N[C@H](CO)[C@H](O)c1ccc([N+](=O)[O-])cc1)C(Cl)Cl [Chloroamphenicol] | Papp at 16 h | 0.6

# context switch: different compound, same Papp at 16 h
Memo: CC(C)Cc1ccc(C(C)C(=O)O)cc1 (centres unmarked) [Ibuprofen] , reported Papp at 16 h: 3

###

Answer each item with its documented Papp at 16 h.
- assay: PAMPA with synthetic phospholipid membrane, lauryl chain (C12)
- Format: in vitro ADME
- test_conditions: PAMPA, C12, donor pH 6.57, acceptor pH 7.4, 16 h; read-out: P e
Give bare numbers, in ×10⁻⁶ cm/s.

compound | Papp at 16 h / ×10⁻⁶ cm/s
O=C(N[C@H](CO)[C@H](O)c1ccc([N+](=O)[O-])cc1)C(Cl)Cl | 1.5
NC(N)=Nc1nc(CSCCC(N)=NS(N)(=O)=O)cs1 | 6
CN/C(=N/CCSCc1nc[nH]c1C)NC#N | 2.7

Memo: CC(C)Cc1ccc(C(C)C(=O)O)cc1 (stereo not shown) , reported Papp at 16 h: 7.5

###

- assay: PAMPA with synthetic phospholipid membrane, octyl chain (C8)
- Format: in vitro ADME
- test_conditions: PAMPA, C8, donor pH 6.57, acceptor pH 7.4, 16 h; read-out: P e
measure_name: Papp at 16 h (×10⁻⁶ cm/s)
One number for each entry, in ×10⁻⁶ cm/s.

Observe how each entry below is paired with its result.
compound | Papp at 16 h [×10⁻⁶ cm/s]
O=C(N[C@H](CO)[C@H](O)c1ccc([N+](=O)[O-])cc1)C(Cl)Cl | 1.7
CCn1cc(C(=O)O)c(=O)c2cc(F)c(N3CCNCC3)cc21 | 2.6
CC(C)Cc1ccc(C(C)C(=O)O)cc1 (stereo not shown) | 8.5

Memo: NC(N)=Nc1nc(CSCCC(N)=NS(N)(=O)=O)cs1 , reported Papp at 16 h: 5

###

- assay: PAMPA with synthetic phospholipid membrane, decyl chain (C10)
- Assay type: in vitro ADME
- test_conditions: C10, donor pH 8.2, acceptor pH 7.4, 16 h
Where a name gives a salt, the structure may show the parent alone.
measure_name: P e

Observe how each entry below is paired with its result.
compound | measured
CC1(C)S[C@@H]2[C@H](NC(=O)[C@H](N)c3ccc(O)cc3)C(=O)N2[C@H]1C(=O)O [Amoxicillin] | 2.3 ×10^–7 cm/s
COCCc1ccc(OCC(O)CNC(C)C)cc1 (centres unmarked) [Metoprolol Tartrate] | 7.5 ×10^–5 cm/s
CNC(=C[N+](=O)[O-])NCCSCc1ccc(CN(C)C)o1 [Ranitidine] | 5.8 ×10^–7 cm/s
CCn1cc(C(=O)O)c(=O)c2cc(F)c(N3CCNCC3)cc21 [Norfloxacin] | 2.5 ×10^–6 cm/s

# context switch: different compound, same P e
Memo: CN(C)C(=N)N=C(N)N [Metformin Hydrochloride] , reported P e: 5.8 ×10^–7 cm/s
